Source of measurements: ChEMBL document CHEMBL4011598

Experiment: Intrinsic clearance in dog liver microsomes
Type: ADME, Canis lupus familiaris, microsome
Details: read-out: CLH
endpoint: microsomal CLint

Prompt: I have this compound here, "COc1cc(-c2cccc(F)c2)ccc1-c1nccc2cc(S(=O)(=O)Nc3ccncn3)ccc12" , and I need its recorded microsomal CLint.
Response: < 14 µL/min/mg

* * *

Experiment: Volume of distribution at steady state in rat at 0.5 mg/kg, iv
Assay type: ADME, organism-based
Settings: in vivo, read-out: Vdss
endpoint: Vd (L/kg)
Give the number; L/kg is assumed, so skip it.

Prompt: May I ask what Vd has been recorded for "COc1cc(-c2cccc(C(F)(F)F)c2)c(F)cc1-c1nccc2cc(S(=O)(=O)Nc3ccon3)ccc12" ?
Response: 2.1

* * *

Target: Cytochrome P450 3A4 (Homo sapiens)
Sequence (P08684 whole entry): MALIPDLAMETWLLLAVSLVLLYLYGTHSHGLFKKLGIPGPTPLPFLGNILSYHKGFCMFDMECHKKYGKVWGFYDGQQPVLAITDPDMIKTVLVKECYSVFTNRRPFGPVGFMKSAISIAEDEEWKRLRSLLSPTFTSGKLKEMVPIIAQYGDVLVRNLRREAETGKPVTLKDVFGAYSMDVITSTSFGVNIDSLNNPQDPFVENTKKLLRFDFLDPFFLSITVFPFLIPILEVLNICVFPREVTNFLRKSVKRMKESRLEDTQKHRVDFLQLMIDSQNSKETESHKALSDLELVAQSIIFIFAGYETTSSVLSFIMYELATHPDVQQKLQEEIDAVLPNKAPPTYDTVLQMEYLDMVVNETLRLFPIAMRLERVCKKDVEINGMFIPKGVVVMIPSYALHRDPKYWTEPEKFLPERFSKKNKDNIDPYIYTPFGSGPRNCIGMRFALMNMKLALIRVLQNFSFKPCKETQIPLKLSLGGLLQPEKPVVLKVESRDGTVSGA
Test: Induction of CYP3A4 in human hepatocytes at 10 uM relative to rifampicin
endpoint: Activity (%)
The response must be a number in % with no trailing unit.

Prompt: Fill blank: measured Activity of the compound "COc1cc(-c2cccc(C(F)(F)F)c2)c(F)cc1-c1nccc2cc(S(=O)(=O)Nc3ccon3)ccc12" is ____.
Response: 7

Prompt: Item: "COc1cc(C(F)(F)F)ccc1-c1nccc2cc(S(=O)(=O)Nc3ccncn3)ccc12"
Response: 177

Prompt: Also, "COc1cc(-c2cccc(F)c2)c(Cl)cc1-c1nccc2cc(S(=O)(=O)Nc3ccon3)ccc12" please.
Response: 58

Prompt: How about this compound: "COc1cc(C(F)(F)F)ccc1-c1ncnc2cc(S(=O)(=O)Nc3nccs3)ccc12"
Response: 128

Prompt: Same for "COc1cc(-c2cccc(F)c2)ccc1-c1nccc2cc(S(=O)(=O)Nc3ccncn3)ccc12"
Response: 12

* * *

Tested on: Plasma
Assay: Total plasma concentration in C57Bl/6 mouse at 30 mg/kg, po
Assay type: ADME, organism-based
Conditions: in vivo
endpoint: concentration (µM)
Your answer is read as µM, so omit the unit and give the number.

Prompt: Recorded concentration of "COc1cc(-c2cccc(C(F)(F)F)c2)c(F)cc1-c1nccc2cc(S(=O)(=O)Nc3ccon3)ccc12" , please.
Response: 21.2

* * *

System: Rattus norvegicus
Test: Unbound clearance in rat at 0.5 mg/kg, iv
Assay type: ADME, organism-based
Settings: in vivo
Could you please mark true (1) for values of CL free below 400 L/h/kg and false (0) for values at or above it?

Prompt: Please let me know if "COc1cc(-c2cccc(C(F)(F)F)c2)c(F)cc1-c1nccc2cc(S(=O)(=O)Nc3ccon3)ccc12" shows CL free below 400 L/h/kg.
Response: true (1)

Prompt: Moving on to "COc1cc(-c2cccc(F)c2)c(Cl)cc1-c1nccc2cc(S(=O)(=O)Nc3ncon3)ccc12"
Response: false (0)

Prompt: One more molecule: "COc1cc(-c2cccc(F)c2)c(Cl)cc1-c1[nH]c(=O)cc2cc(S(=O)(=O)Nc3ccon3)ccc12"
Response: false (0)

Prompt: Repeat for the following molecule: "COc1cc(C(F)(F)F)ccc1-c1nccc2cc(S(=O)(=O)Nc3ccncn3)ccc12"
Response: true (1)

Prompt: Would you mind doing "COc1cc(C(F)(F)F)ccc1-c1ncnc2cc(S(=O)(=O)Nc3nccs3)ccc12" as well?
Response: true (1)

Prompt: Now the same for "COc1cc(-c2cccc(F)c2)c(Cl)cc1-c1nn(C)c(=O)c2cc(S(=O)(=O)Nc3ccon3)ccc12"
Response: false (0)

Prompt: Same again, this time with "COc1cc(-c2cccc(F)c2)c(Cl)cc1-c1nccc2cc(S(=O)(=O)Nc3ccon3)ccc12"
Response: true (1)

* * *

Biological target: PXR (NR1I2) (Homo sapiens, UniProt O75469)
Sequence (O75469 whole entry): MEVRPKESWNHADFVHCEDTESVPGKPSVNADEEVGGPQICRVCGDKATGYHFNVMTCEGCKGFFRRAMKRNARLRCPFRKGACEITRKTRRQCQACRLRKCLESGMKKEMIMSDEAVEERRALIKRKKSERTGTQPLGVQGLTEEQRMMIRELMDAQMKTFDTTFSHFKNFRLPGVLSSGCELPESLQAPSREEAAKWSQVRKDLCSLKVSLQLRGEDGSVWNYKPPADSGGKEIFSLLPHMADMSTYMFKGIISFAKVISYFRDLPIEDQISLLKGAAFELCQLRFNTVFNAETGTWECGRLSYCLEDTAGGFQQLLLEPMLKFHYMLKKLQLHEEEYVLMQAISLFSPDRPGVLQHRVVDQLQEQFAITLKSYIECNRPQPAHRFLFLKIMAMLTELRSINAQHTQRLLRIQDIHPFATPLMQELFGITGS
Test: Activation of human PXR at 10 uM in presence of rifampicin
Type: ADME
Details: read-out: Activity
Outcome: satisfied for activity at 10 µM of at least 50%; not satisfied for anything lower.

Prompt: For this compound, is measured activity at 10 µM 50% or higher? "COc1cc(-c2cccc(F)c2)c(Cl)cc1-c1[nH]c(=O)cc2cc(S(=O)(=O)Nc3ccon3)ccc12"
Response: not satisfied

Prompt: Same again, this time with "COc1cc(-c2cccc(F)c2)c(Cl)cc1-c1nccc2cc(S(=O)(=O)Nc3cccnn3)ccc12"
Response: satisfied

Prompt: Another: "COc1cc(-c2cccc(C)c2)c(F)cc1-c1nccc2cc(S(=O)(=O)Nc3ccon3)ccc12"
Response: satisfied

Prompt: "COc1cc(-c2cc(F)cc(F)c2)c(F)cc1-c1nccc2cc(S(=O)(=O)Nc3ccon3)ccc12" ?
Response: not satisfied

Prompt: Now the same for "COc1cc(-c2cccc(F)c2)c(Cl)cc1-c1c(N)nnc2cc(S(=O)(=O)Nc3ccon3)ccc12"
Response: satisfied

Prompt: Now this one: "COc1cc(-c2cccc(C(F)(F)F)c2)c(C#N)cc1-c1nccc2cc(S(=O)(=O)Nc3ccon3)ccc12"
Response: not satisfied

Prompt: Try the compound "COc1cc(-c2cc(F)cnc2OC)c(F)cc1-c1nccc2cc(S(=O)(=O)Nc3ccon3)ccc12"
Response: satisfied

* * *

Assay: Intrinsic clearance in human liver microsomes at 1 uM after 1 to 40 mins in presence of NADPH by LC-MS/MS analysis
Assay type: ADME, microsome
Conditions: read-out: CLH
For each record, write down the corresponding microsomal CLint at 1 µM.
Record the value in µL/min/mg, omitting the unit from your answer.

Prompt: Returns the measured microsomal CLint at 1 µM for the input compound. Input: "COc1cc(-c2cccc(F)c2)c(Cl)cc1-c1ncnc2cc(S(=O)(=O)Nc3ccon3)ccc12"
Response: 21

Prompt: # iterate: "COc1cc(-c2cccc(C)c2)c(F)cc1-c1nccc2cc(S(=O)(=O)Nc3ccon3)ccc12"
Response: 36

Prompt: Also check "COc1cc(-c2ccc(Cl)c(C)c2)c(F)cc1-c1nccc2cc(S(=O)(=O)Nc3ccon3)ccc12"
Response: 35

Prompt: Param item: "COc1cc(-c2cccc(F)c2)c(Cl)cc1-c1nccc2cc(S(=O)(=O)Nc3ncco3)ccc12"
Response: 46

* * *

Experiment: Intrinsic clearance in human liver microsomes at 1 uM after 1 to 40 mins in presence of NADPH by LC-MS/MS analysis
Format: ADME, microsome
Settings: read-out: CLH
Consider the following compounds; for each one, report its microsomal CLint at 1 µM.

Prompt: Can you share its microsomal CLint at 1 µM? I mean this compound: "COc1cc(-c2cccc(F)c2)c(Cl)cc1-c1c(=O)n(C)cc2cc(S(=O)(=O)Nc3ccon3)ccc12"
Response: < 14 µL/min/mg

Prompt: Then what about the compound "COc1cc(-c2cccc(F)c2)c(Cl)cc1-c1nccc2cc(S(=O)(=O)Nc3ncns3)ccc12" ?
Response: < 14 µL/min/mg

Prompt: And for "COc1cc(-c2cc(F)cnc2OC)c(F)cc1-c1nccc2cc(S(=O)(=O)Nc3ccon3)ccc12" ?
Response: < 14 µL/min/mg

Prompt: "COc1cc(-c2cccc(F)c2)c(Cl)cc1-c1nccc2cc(S(=O)(=O)Nc3ccon3)ccc12" , same question.
Response: < 14 µL/min/mg

Prompt: # repeat for "COc1cc(-c2cccc(F)c2)c(Cl)cc1-c1nccc2cc(S(=O)(=O)Nc3ncccn3)ccc12"
Response: < 14 µL/min/mg

Prompt: Please answer likewise for "COc1cc(-c2cccc(F)c2)c(Cl)cc1-c1nccc2cc(S(=O)(=O)Nc3cccnn3)ccc12"
Response: < 14 µL/min/mg

Prompt: Try the compound "COc1cc(-c2ccc(C(F)(F)F)cc2)c(F)cc1-c1nccc2cc(S(=O)(=O)Nc3ccon3)ccc12"
Response: < 14 µL/min/mg

Prompt: How about this compound: "COc1cc(-c2cccc(F)c2)c(Cl)cc1-c1nn(C)c(=O)c2cc(S(=O)(=O)Nc3ccon3)ccc12"
Response: 16 µL/min/mg

Prompt: Also check "COc1cc(-c2cccc(Cl)c2)c(F)cc1-c1nccc2cc(S(=O)(=O)Nc3ccon3)ccc12"
Response: 36 µL/min/mg

Prompt: Now try "COc1cc(-c2cccc(F)c2)c(Cl)cc1-c1nccc2cc(S(=O)(=O)Nc3ccncn3)ccc12" .
Response: < 14 µL/min/mg

Prompt: Then "COc1cc(-c2cc(F)cc(F)c2)c(F)cc1-c1nccc2cc(S(=O)(=O)Nc3ccon3)ccc12" ?
Response: 30 µL/min/mg

Prompt: What about "COc1cc(-c2cccc(F)c2)c(Cl)cc1-c1ncc(O)c2cc(S(=O)(=O)Nc3ccon3)ccc12" ?
Response: 15 µL/min/mg

Prompt: Field entry: "COc1cc(-c2cccc(C(F)(F)F)c2)c(F)cc1-c1nccc2cc(S(=O)(=O)Nc3ccon3)ccc12"
Response: < 14 µL/min/mg
